# System: K4 kissing-loop RNA reporter;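 note: bound reporter read as fluorescence of individual clusters on recovered sequencing chips by microscopy, with normalized cluster intensities fitted with a binding model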
# assayComment: apparent KD of K4 kissing-loop reporter; higher = weaker reporter binding
# assaySetup: Eterna round: R107; input ligand: theophylline 20 uM
# label = Condition met if apparent KD of K4 kissing-loop reporter >= 200 nM else Condition not met

seqText	testedOn	groupLabel
ACCUACGAUCACAAAAGUGAUUGUAGGAUCUAGGAUAUGCUGAAGAGCAGAAGGAGAGUGAUGUUCUCAUCUCACGAAAGUGAGA [whbob_Ex_FMNA__2th189]	K4 kissing-loop RNA reporter	Condition met
AGGAUCCGUCGACAAAAGUCGACAUAAACCAAGGAUAUGACGAAAGUCAGAAGGUGGUCAUAAGACCAGUGAUGUUGGUGGAUCC [FmnA 11 #SwitchBubble #K4Late]	K4 kissing-loop RNA reporter	Condition met
UUUCGUCUCUGAGGAUAUCAGAGGAGAGUGAUGUUCUCCCAUAGCCCAGUGAUGUUGGAUGCUAUCUGAGAAGGCAGUGGGCGAA [Same State FMN B GF 13]	K4 kissing-loop RNA reporter	Condition not met
GGGUGGGUGCGAGGAUAUGGAGUGAUGUUCCAAAAGAAAAGAAGAGAAGAGAAAGAGAGAAAGAAACCAGAAGGCGCGUCCGUCC	K4 kissing-loop RNA reporter	Condition met
GAUUAUUAUUCUAAAUAACAUUAUUCAGAAGGAGCGUGUUUGUACACAGGUAGGUCGCUGAAUGCUAAGCCAGUGAUGUUGGUAA [JR_SSArginiA_Sub001]	K4 kissing-loop RNA reporter	Condition not met
GCGAAGUGAUGUUUCGCCAAUAUUUGAUGAAAGGAUAUCUACUUGAAGAGAAGGUUCAUAUGACUCAAUACCUGACUUGGACCCG [theeternabot_sameState_KL_FMN_A_37]	K4 kissing-loop RNA reporter	Condition not met
GGUAGCUAGGUAGGAUAUAGCUAGUGGAGUGAUGUUCCACGAUACACGAGUGAUGUUCGUACCCUGCUAGAAGGGCCUAGCUACC	K4 kissing-loop RNA reporter	Condition not met
UUUACCAGUGAUGUUGGCCUAGUAUUUACACGAGGACCGGUACGGCCGCCACUCGCAUUAUCGGACUUUGAUAAGCAUAUUAUAU [theeternabot_sameState_KL_Trp_A_28]	K4 kissing-loop RNA reporter	Condition met
GAUAUAGAGGCGGCCGCCACUAGUGAUGUUAGUGAUGUUAGAUAGAGAAUAGAACAGAGGUGGGAUAGGACCGGGCCAGAUAGAG [whbob_SS_Tryp_B_w34]	K4 kissing-loop RNA reporter	Condition not met
UGGAUAUAGUGAUGUUAUAUAGAGAGUGAUACCAGUUUAGAGAAGAACCCUUGGCAGCAUAGAGAAGUAUCAUUAGAGAAGAAUG [ExTheophyl.Ap]	K4 kissing-loop RNA reporter	Condition met
ACAUGUUCCAGUGAUGUUGGCGUACGUGAUACCAGACGAAUAAAAGUCCCUUGGCAGCACAAAUAAGCCAAGAUAGGUGAAUGAU [#04 K4 Theophylline A Exclusion]	K4 kissing-loop RNA reporter	Condition met
CGCGUGGGUUUGAGAGGGUUUGUGCGAAGUGAGGAUAUUUAGGGAGAAAGAAGGCACUAUAAAAUAUAGUGAUGUUAUAUAAGGG [SSFMNA.K]	K4 kissing-loop RNA reporter	Condition met
GUAGGAUGAGGAGGAGGAUGAAUUACUGAAGGAGCGCAUAUUAAUGCAGGUAGGUCGCGGUAAAGAAGUAUAGUGAUGUUAUAUA [SSArgA.H]	K4 kissing-loop RNA reporter	Condition met
AGUUCCGACGGAAGGAGCGGACAGUAUUGACGGAAAGGUGCAAGUGAUGUUUGCGCUUGUGUCCAGGUAGGUCGCCGUCGGAACA [Arg B SS t13]	K4 kissing-loop RNA reporter	Condition not met
GGUGACAGCCAGGAGUGAUGUAUAGAAUAGCGAGGACCGGUACGGCCGCCACUCGUGAAGAGAAGGGAGUGAUGUUCCGUAAUGG [Kazoo C]	K4 kissing-loop RNA reporter	Condition met
GCGAUUCAGUGAUGUUGGAAAUACAGGGAUACCAGCCGAAAAUAAGGCCCUUGGCAGCUUAAUAGGAAAGAACUAAGAAAGACGC [Theophylline A Same State; Euphoria Solution 3]	K4 kissing-loop RNA reporter	Condition met
GCAGUGAUGUUGCACGAGUAGGGUAGAGUACGAGGACCGGUACGGCCGCCACUCGUACGGAACUCGCUAAUUUAUGGAAUGGUGA [I]	K4 kissing-loop RNA reporter	Condition met
UGACAUUGCUCAGAUACCAGACAUGAGCAUCAGCCAUGUGCCAAAUACGUACAAAUAAAUGUCCCUUGGCAGCUGAGCAAUGUCU [TheoBX 12]	K4 kissing-loop RNA reporter	Condition not met
GCAAAACAAACGUAGAGUGGAACACAGAGACGAGGACCGGUACGGCCGCCACUCGACGAGGUUUUCAGUGAUGUUGAAAAUUUAG [Exclusion Tryptophan A GF2]	K4 kissing-loop RNA reporter	Condition not met
AACUAUUAAUGAAUUACAUUUUAUUUUUCUCGAGGACCGGUACGGCCGCCACUCGUACUAUAGUGAUGUUAUAGAUAAGUCCUAA [JR_ExcTryptoA_Sub021]	K4 kissing-loop RNA reporter	Condition not met
ACCCGUAGGAUACGGAGGUGUAAAUGGGUAUAGGAUAUCUAGAAAUAGAGAAGGAUACCAGUGAUGUUGGUUCCGUAUAUCUUAA	K4 kissing-loop RNA reporter	Condition not met
UGUUAUGGGUGAGGAUAUGCUGACGAUGCGGGUGCGAGUGAUGUUGGUGUGGCUGGUGUCGUUUGUGCAGAAGGCACGCUCGUGG [BDazzled]	K4 kissing-loop RNA reporter	Condition met
AACUGUCAAGGACAACAUUACUGAGGUGAUACCAGCAUCGAAAGAUGCCCUUGGCAGCACUGACUUGCAGUGAUGUUGCAAGUAA [BrourdMod 8 - Jieux - Exclusion - Theophylline A]	K4 kissing-loop RNA reporter	Condition met
